- Protocol: Determination of the microsomal half-life, human liver microsomes
- Experimental Context: human, liver microsomes, pH 7.4
Structures can show the parent of a compound that is named as a salt.
Assay Endpoint: microsomal CLint at 0.5 μM

Reference set (4 entries):
| Compound | Measured Value |
| --- | --- |
| O=C1c2c(N3CCOCC3)ccnc2CN1CCc1ccc2ncccc2n1 [compound 514] | < 100 µL/min/mg |
| O=C1c2c(cccc2N2CCOCC2)CN1CCc1cn2ccccc2n1 [Example 310] | < 100 µL/min/mg |
| CC1CN(c2cccc3c2C(=O)N(CCc2ccc4ccccc4n2)C3)CCO1 (stereo not drawn) [Example 228, trifluoroacetate] | > 220 µL/min/mg |
| COc1ccc(-c2cccnc2)c2c1C(=O)N(CCc1cn3ccccc3n1)C2 [compound 456, trifluoroacetate] | < 100 µL/min/mg |

So what does the record say about microsomal CLint at 0.5 μM for O=C1c2c(cccc2-c2ccncc2)CN1CCc1cn2ccccc2n1 [Example 20] ?
< 100 µL/min/mg
